System: HeLa Kyoto;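 note: synchronized HeLa Kyoto cells, proteins quantified by TMT10plex mass spectrometry, three biological replicates, mitosis taken 0.5 h after nocodazole release, G1/S directly after double thymidine block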
Assay: thermal stability score vs G1/S (z-score of summed log2 fold changes over temperatures); higher = more thermally stable than in G1/S
Details: cell cycle stage: mitosis
thermal stability score values for the sequences below.
The answer should be a number; do not append a unit.

1) MEEGGNLGGLIKMVHLLVLSGAWGMQMWVTFVSGFLLFRSLPRHTFGLVQSKLFPFYFHISMGCAFINLCILASQHAWAQLTFWEASQLYLLFLSLTLATVNARWLEPRTTAAMWALQTVEKERGLGGEVPGSHQGPDPYRQLREKDPKYSALRQNFFRYHGLSSLCNLGCVLSNGLCLAGLALEIRSL [TMEM205]: -1.84

// next item, thermal stability score requested
Query :: Reported thermal stability score for MAASSISSPWGKHVFKAILMVLVALILLHSALAQSRRDFAPPGQQKREAPVDVLTQIGRSVRGTLDAWIGPETMHLVSESSSQVLWAISSAISVAFFALSGIAAQLLNALGLAGDYLAQGLKLSPGQVQTFLLWGAGALVVYWLLSLLLGLVLALLGRILWGLKLVIFLAGFVALMRSVPDPSTRALLLLALLILYALLSRLTGSRASGAQLEAKVRGLERQVEELRWRQRRAAKGARSVEEE [TMEM109] : what is it?
Result :: -4.03
